- Tested on: LoVo-Dox
- ASSAY DETAILS: SRB colorimetric assay of cell growth and viability, LoVo-Dox
- Assay type: cell-based, human
- TEST SETTINGS: 48 hours exposure; read-out: LC50 LOVO-DOX
Where a SMILES comes first, the peptide text is derived from it. Bridges are numbered along the chain shown (N, C = ends). [ ]: non-standard residue; d: D form. The star is where a group is joined. d(aIle) = CC[C@H](C)[C@@H](N)C(=O)O; d(aThr) = C[C@@H](O)[C@@H](N)C(=O)O; Hexanoyl(5-Me) = CC(C)CCCC(=O)*; Orn = NCCC[C@H](N)C(=O)O; Dhb = C/C=C(\N)C(=O)O
Listing: CC50 of selected compounds

COMPOUND	VALUE QUALIFIER	CC50 / µM
C/C=C1\NC(=O)[C@H](Cc2ccccc2)NC(=O)[C@@H](C(C)C)NC(=O)[C@@H]([C@@H](C)CC)NC(=O)[C@H](NC(=O)[C@H](NC(=O)[C@H](CCC(=O)O)NC(=O)[C@H]2CCCN2C(=O)[C@H](NC(=O)[C@@H](NC(=O)[C@@H](NC(=O)[C@H](NC(=O)CCCC(C)C)C(C)C)[C@@H](C)O)C(C)C)C(C)C)[C@@H](C)CC)[C@@H](C)OC(=O)[C@H](C(C)C)NC1=O [Compound 4, [Glu^8]-KF] ({Hexanoyl(5-Me)}-[dV]TV[dV][dP]E[d(aIle)][d(aThr)][d(aIle)][dV]F[Dhb]V; ester 8-C)	=	4.15
C/C=C1\NC(=O)[C@H](Cc2ccccc2)NC(=O)[C@@H](C(C)C)NC(=O)[C@@H]([C@@H](C)CC)NC(=O)[C@H](NC(=O)[C@H](NC(=O)[C@H](CCCN)NC(=O)[C@H]2CCCN2C(=O)[C@H](NC(=O)[C@@H](NC(=O)[C@@H](NC(=O)[C@H](NC(=O)CCCCCCC)C(C)C)[C@@H](C)O)C(C)C)C(C)C)[C@@H](C)CC)[C@@H](C)OC(=O)[C@H](C(C)C)NC1=O [Compound 18, [Oct^14]-KF]	=	0.335
C/C=C1\NC(=O)[C@H](Cc2ccccc2)NC(=O)[C@@H](C(C)C)NC(=O)[C@@H]([C@@H](C)CC)NC(=O)[C@H](NC(=O)[C@H](NC(=O)[C@H](CCCN)NC(=O)[C@H]2CCCN2C(=O)[C@H](NC(=O)[C@@H](NC(=O)[C@H](CCC(=O)O)NC(=O)CCCC(C)C)C(C)C)C(C)C)[C@@H](C)CC)[C@@H](C)OC(=O)[C@H](C(C)C)NC1=O [Compound 56, [Glu^12, noD-Val^13]-KF] ({Hexanoyl(5-Me)}-EV[dV][dP][Orn][d(aIle)][d(aThr)][d(aIle)][dV]F[Dhb]V; ester 7-C)	≥	7.11
C/C=C1\NC(=O)[C@H](Cc2ccccc2)NC(=O)[C@@H](C(C)C)NC(=O)[C@@H]([C@@H](C)CC)NC(=O)[C@H](NC(=O)[C@H](NC(=O)[C@H](CCCN)NC(=O)[C@H]2CCCN2C(=O)[C@H](NC(=O)[C@@H](NC(=O)[C@@H]2CCCN2C(=O)CCCC(C)C)C(C)C)C(C)C)[C@@H](C)CC)[C@@H](C)OC(=O)[C@H](C(C)C)NC1=O [Compound 55, [Pro^12, noD-Val^13]-KF] ({Hexanoyl(5-Me)}-PV[dV][dP][Orn][d(aIle)][d(aThr)][d(aIle)][dV]F[Dhb]V; ester 7-C)	=	7.27

Reference source for all entries: patent US20070117743A1
